Each entry below lists one item and its recorded Ki value.
Target chain: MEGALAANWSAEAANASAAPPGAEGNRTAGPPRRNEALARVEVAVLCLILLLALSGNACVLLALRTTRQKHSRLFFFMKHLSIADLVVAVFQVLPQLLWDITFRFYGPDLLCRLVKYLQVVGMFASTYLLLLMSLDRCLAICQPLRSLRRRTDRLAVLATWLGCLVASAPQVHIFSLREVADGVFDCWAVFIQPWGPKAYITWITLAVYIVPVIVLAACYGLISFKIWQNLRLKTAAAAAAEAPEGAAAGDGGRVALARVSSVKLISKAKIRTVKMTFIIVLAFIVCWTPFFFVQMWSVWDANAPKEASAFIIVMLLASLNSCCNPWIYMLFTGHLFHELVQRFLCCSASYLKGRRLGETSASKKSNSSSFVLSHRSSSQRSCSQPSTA
Expressed in nM, but write only the number.

Sample answers from the record:
{"smiles data": "COc1ccc(S(=O)(=O)N2C(=O)[C@@](c3ccc(CN4CCCC4)cc3OC)(N3CCC[C@H]3C(=O)N(C)C)c3cc(Cl)ccc32)cc1", "meas value": 28}
{"smiles data": "COc1ccc(S(=O)(=O)N2C(=O)[C@@](c3ccc(CN4CCCC4)cc3OC)(N3CCC[C@H]3C(=O)N(C)C)c3cc(Cl)ccc32)c(OC)c1", "meas value": 45}
{"smiles data": "CNCc1ccc(OC)c([C@@]2(N3CCC[C@H]3c3ncco3)C(=O)N(S(=O)(=O)c3ccc(OC)cc3)c3ccc(Cl)cc32)c1", "meas value": 135}
{"smiles data": "COc1ccc(S(=O)(=O)N2C(=O)[C@@](c3cnc(OC)nc3OC)(N3C[C@H](O)C[C@H]3C(=O)N(C)C)c3cc(Cl)ccc32)c(OC)c1", "meas value": 45}

Now take the following compound into account.
Ask: Record request: Ki value, item COc1ccc(S(=O)(=O)N2C(=O)[C@@](c3cc(CN(C)C)ccc3OC)(N3CCC[C@H]3c3ncco3)c3cc(Cl)ccc32)cc1
Result: 115

====

Assay: Volume of distribution at steady state in rat at 2 mg/kg, iv
Type: ADME, organism-based
Design: dose 2 mg/kg, route intravenous
Conditions: in vivo, read-out: Vdss
Each entry below lists one item and its recorded Vd value.
Returns: string containing the number followed by the unit.

{"smiles data": "CNCc1ccc(OC)c([C@@]2(N3CCC[C@H]3c3ncco3)C(=O)N(S(=O)(=O)c3ccc(OC)cc3)c3ccc(Cl)cc32)c1", "meas value": "13 L/kg"}

Now take the following molecule into account.
Ask: Record request: Vd value, item COc1ccc(S(=O)(=O)N2C(=O)[C@@](c3ccccc3OC)(N3C[C@H](O)C[C@H]3C(=O)N(C)C)c3cc(Cl)ccc32)c(OC)c1
Result: 2.8 L/kg

====

Each entry below lists one item and its recorded Ki value.
Target protein (sequence): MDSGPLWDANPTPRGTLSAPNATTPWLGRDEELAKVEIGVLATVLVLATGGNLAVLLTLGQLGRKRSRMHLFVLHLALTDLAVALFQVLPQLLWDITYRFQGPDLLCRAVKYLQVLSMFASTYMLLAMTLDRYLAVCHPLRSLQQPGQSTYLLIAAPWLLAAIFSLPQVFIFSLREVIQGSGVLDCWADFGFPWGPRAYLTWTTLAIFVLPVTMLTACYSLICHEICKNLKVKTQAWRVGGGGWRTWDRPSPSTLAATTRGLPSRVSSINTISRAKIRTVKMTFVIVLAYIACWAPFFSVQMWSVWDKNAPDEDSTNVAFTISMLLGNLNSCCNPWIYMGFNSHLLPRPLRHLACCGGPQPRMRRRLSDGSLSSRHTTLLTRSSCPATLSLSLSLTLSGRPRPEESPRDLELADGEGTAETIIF
Expressed in nM, but write only the number.

{"molecule": "COc1ccc(S(=O)(=O)N2C(=O)[C@@](c3cc(CN4CCCC4)ccc3OC)(N3CCC[C@H]3C(=O)N(C)C)c3cc(Cl)ccc32)c(OC)c1", "Ki [nM]": 0.26}
{"molecule": "COc1ccc(S(=O)(=O)N2C(=O)[C@@](c3cc(CN(C)C)ccc3OC)(N3CCC[C@H]3c3ncco3)c3cc(Cl)ccc32)cc1", "Ki [nM]": 2}

Ask: Record request: Ki value, item COc1ccc(S(=O)(=O)N2C(=O)[C@@](c3cnccc3OC)(N3C[C@H](O)C[C@H]3C(=O)N(C)C)c3cc(Cl)ccc32)c(OC)c1
Result: 2.1

Ask: Same question, COc1ccc(S(=O)(=O)N2C(=O)[C@@](c3cccnc3OC)(N3CCCC3c3nccs3)c3cc(Cl)ccc32)c(OC)c1 (mixture of isomers) this time
Result: 276

Ask: Same question, COc1ccc(S(=O)(=O)N2C(=O)[C@@](c3cc(CN4CCN(C)CC4)ccc3OC)(N3CCC[C@H]3C(=O)N(C)C)c3cc(Cl)ccc32)cc1 this time
Result: 0.03

Ask: Same question, COc1ccc(S(=O)(=O)N2C(=O)[C@@](c3cccnc3OC)(N3CCCC3c3ccccn3)c3cc(Cl)ccc32)c(OC)c1 (mixture of isomers) this time
Result: 786

====

Experiment: Ratio of AUC in brain to plasma in rat at 10 mg/kg, ip
Format: ADME, organism-based
Parameters: dose 10 mg/kg, route intraperitoneal
Settings: brain and plasma, read-out: Ratio AUC
quantity kind: Kp
Could you keep your reply to the number by itself?

{"smiles data": "COc1ccc(S(=O)(=O)N2C(=O)[C@@](c3ccccc3OC)(N3C[C@H](O)C[C@H]3C(=O)N(C)C)c3cc(Cl)ccc32)c(OC)c1", "meas value": 0.03}

Now take the following molecule into account.
Ask: Record request: Kp value, item CNCc1ccc(OC)c([C@@]2(N3CCC[C@H]3c3ncco3)C(=O)N(S(=O)(=O)c3ccc(OC)cc3)c3ccc(Cl)cc32)c1
Result: 0.31

====

Each entry below lists one item and its recorded microsomal CLint value.
Assay: Intrinsic clearance in human liver microsomes measured up to 40 mins by HPLC-MS method
Assay type: ADME, Microsome
Expressed in µL/min/mg, but write only the number.

Sample answers from the record:
{"smiles data": "CNCc1ccc(OC)c([C@@]2(N3CCC[C@H]3c3ncco3)C(=O)N(S(=O)(=O)c3ccc(OC)cc3)c3ccc(Cl)cc32)c1", "microsomal CLint / µL/min/mg": 64}
{"smiles data": "COc1ccc(S(=O)(=O)N2C(=O)[C@@](c3cc(CN4CCCC4)ccc3OC)(N3CCC[C@H]3C(=O)N(C)C)c3cc(Cl)ccc32)c(OC)c1", "microsomal CLint / µL/min/mg": 394}
{"smiles data": "COc1ccc(S(=O)(=O)N2C(=O)[C@@](c3cc(CN4CCN(C)CC4)ccc3OC)(N3CCC[C@H]3c3ncco3)c3cc(Cl)ccc32)cc1", "microsomal CLint / µL/min/mg": 76}
{"smiles data": "COc1ccc(S(=O)(=O)N2C(=O)[C@@](c3cnccc3OC)(N3C[C@H](O)C[C@H]3C(=O)N(C)C)c3cc(Cl)ccc32)c(OC)c1", "microsomal CLint / µL/min/mg": 158}
{"smiles data": "COc1ccc(S(=O)(=O)N2C(=O)[C@@](c3cc(CN4CCN(C)CC4)ccc3OC)(N3CCC[C@H]3C(=O)N(C)C)c3cc(Cl)ccc32)cc1", "microsomal CLint / µL/min/mg": 414}

Now take the following molecule into account.
Ask: Record request: microsomal CLint value, item COc1ccc(S(=O)(=O)N2C(=O)[C@@](c3cnc(OC)nc3OC)(N3C[C@H](O)C[C@H]3C(=O)N(C)C)c3cc(Cl)ccc32)c(OC)c1
Result: 203

====

Each entry below lists one item and its recorded Ki value.
Target: Vasopressin V1a receptor (Homo sapiens, UniProt P37288)
Sequence (P37288 whole entry): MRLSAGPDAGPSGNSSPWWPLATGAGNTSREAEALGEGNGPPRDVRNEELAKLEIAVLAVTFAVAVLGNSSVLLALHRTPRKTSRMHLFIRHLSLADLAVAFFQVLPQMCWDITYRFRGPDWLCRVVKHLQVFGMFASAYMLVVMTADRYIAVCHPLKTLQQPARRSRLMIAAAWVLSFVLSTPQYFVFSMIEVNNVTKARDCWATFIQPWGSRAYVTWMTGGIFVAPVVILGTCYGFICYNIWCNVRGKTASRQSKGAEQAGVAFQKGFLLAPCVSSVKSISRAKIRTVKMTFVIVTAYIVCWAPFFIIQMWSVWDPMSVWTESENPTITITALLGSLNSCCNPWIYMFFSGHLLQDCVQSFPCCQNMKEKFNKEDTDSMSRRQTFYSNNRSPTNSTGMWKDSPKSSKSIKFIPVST
Expressed in nM, but write only the number.

Ask: Recall the recorded Ki for COc1ccc(S(=O)(=O)N2C(=O)[C@@](c3ccc(CN4CCN(C)CC4)cc3OC)(N3CCC[C@H]3C(=O)N(C)C)c3cc(Cl)ccc32)cc1 with Vasopressin V1a receptor (Homo sapiens, UniProt P37288) and state it.
Result: 15

Ask: Same question, COc1ccc(S(=O)(=O)N2C(=O)[C@@](c3cnccc3OC)(N3C[C@H](O)C[C@H]3C(=O)N(C)C)c3cc(Cl)ccc32)c(OC)c1 this time
Result: 49

Ask: Same question, COc1ccc(S(=O)(=O)N2C(=O)[C@@](c3cnc(OC)nc3OC)(N3C[C@H](O)C[C@H]3C(=O)N(C)C)c3cc(Cl)ccc32)c(OC)c1 this time
Result: 173

Ask: Same question, COc1ccc(S(=O)(=O)N2C(=O)[C@@](c3cc(CN4CCCC4)ccc3OC)(N3CCC[C@H]3c3ncco3)c3cc(Cl)ccc32)cc1 this time
Result: 193

Ask: Same question, COc1ccc(S(=O)(=O)N2C(=O)[C@@](c3cc(CN4CCCC4)ccc3OC)(N3CCC[C@H]3C(=O)N(C)C)c3cc(Cl)ccc32)cc1 this time
Result: 10

====

The compounds below have reported Ki for Vasopressin V2 receptor (Homo sapiens).

Sample answers from the record:
{"smiles data": "COc1ccc(S(=O)(=O)N2C(=O)[C@@](c3ccc(CN4CCCC4)cc3OC)(N3CCC[C@H]3C(=O)N(C)C)c3cc(Cl)ccc32)c(OC)c1", "Ki": "> 1000 nM"}
{"smiles data": "COc1ccc(S(=O)(=O)N2C(=O)[C@@](c3cccnc3OC)(N3C[C@H](O)C[C@H]3C(=O)N(C)C)c3cc(Cl)ccc32)c(OC)c1", "Ki": "618 nM"}

Now take the following compound into account.
Ask: Record request: Ki value, item COc1ccc(S(=O)(=O)N2C(=O)[C@@](c3cc(CN4CCCC4)ccc3OC)(N3CCC[C@H]3C(=O)N(C)C)c3cc(Cl)ccc32)c(OC)c1
Result: > 1000 nM
